# credit: patent US7632829B2

EXPERIMENTAL_SYSTEM: CCR2 (Homo sapiens)
Construct: endogenous in cells
ASSAY_EXPLANATION: Chemotaxis assay (THP1-4x cells, migration towards 10 nM MCP-1)
CONDITION_LABEL: inhibition of specific migration towards MCP-1
pIC50: −log10 of the molar value.
OUTCOME_MEASURE: pIC50

Worked examples follow.
1. O=C(/C=C/c1ccc(Cl)c(Cl)c1)N1CCC(=O)N(CCCN2CCCC(O)C2)CC1 (racemic) ... 7.15
2. O=C(/C=C/c1ccc(Cl)c(Cl)c1)N1CCC(=O)N(CCCN2CCC(O)(c3ccccc3)CC2)CC1 ... 7.11

[1] O=C(/C=C/c1ccc(Cl)c(Cl)c1)N1CCC(=O)N(CCN2CCCC2)CC1
[2] O=C1NC(=O)C2(CCN(CCCN3CCN(C(=O)/C=C/c4ccc(Cl)c(Cl)c4)CCC3=O)CC2)N1
Query block: Please state the entry with greater pIC50 among 1 and 2 . Answer with the label corresponding to your selection.
Result block: 2

###

EXPERIMENTAL_SYSTEM: human chemokine receptor 2 isoform B (Homo sapiens, UniProt P41597)
Sequence (P41597 1-360 isoform P41597-2): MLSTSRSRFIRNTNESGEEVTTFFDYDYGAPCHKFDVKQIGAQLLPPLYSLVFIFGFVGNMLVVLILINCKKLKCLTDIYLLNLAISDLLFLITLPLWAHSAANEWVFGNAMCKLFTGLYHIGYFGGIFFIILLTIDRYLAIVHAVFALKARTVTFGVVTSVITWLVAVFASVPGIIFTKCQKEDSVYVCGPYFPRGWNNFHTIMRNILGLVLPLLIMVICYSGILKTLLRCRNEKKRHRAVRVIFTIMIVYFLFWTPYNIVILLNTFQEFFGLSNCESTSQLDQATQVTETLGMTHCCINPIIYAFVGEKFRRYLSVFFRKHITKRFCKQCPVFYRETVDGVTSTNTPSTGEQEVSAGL
ASSAY_EXPLANATION: Calcium mobilization assay (FLIPR, CHOK1-CCR2B-A5 cells, 20 nM MCP-1)
CONDITION_LABEL: Ca mobilisation assay, CCR2, antagonist activity vs 20 nM MCP-1
pIC50: −log10 of the molar value.
OUTCOME_MEASURE: pIC50

Worked examples follow.
1) O=C1NC(=O)C2(CCN(CCCN3CCN(C(=O)/C=C/c4ccc(Cl)c(Cl)c4)CCC3=O)CC2)N1 [Example 48] ... 7.19
2) O=C(/C=C/c1cccc(Cl)c1)N1CCC(=O)N(CCN2CCCC2)CC1 [Example 1] ... 6.17
3) O=C1CC2(CCN(CCCN3CCN(C(=O)/C=C/c4ccc(Cl)c(Cl)c4)CCC3=O)CC2)CN1 [Example 88] ... 6.12
4) COC1CCCN(CCCN2CCN(C(=O)/C=C/c3ccc(Cl)c(Cl)c3)CCC2=O)C1 (racemic) [Example 80] ... 6.58
5) COCC1(C)CCCN(CCCN2CCN(C(=O)/C=C/c3ccc(Cl)c(Cl)c3)CCC2=O)C1 (racemic) [Example 249] ... 5.90
6) CC1(CO)CCN(CC(O)CN2CCN(C(=O)C=Cc3ccc(F)c(Cl)c3)CCC2=O)CC1O (stereo not drawn) [Example 340] ... 7.72
7) CC1CN(CC(O)CCN2CCN(C(=O)/C=C/c3ccc(Cl)c(Cl)c3)CCC2=O)CCC1O (racemic) [Example 358] ... 6.06
8) CC1(CO)CCN(CC(O)CN2CCN(C(=O)/C=C/c3ccc(Cl)c(Cl)c3)CCC2=O)CC1 (racemic) [Example 319] ... 6.58
9) O=C(/C=C/c1ccc(Cl)c(Cl)c1)N1CCC(=O)N(CC(O)CN2CCC(F)CC2)CC1 (racemic) [Example 169] ... 6.59
10) CC1CN(CCCN2CCN(C(=O)/C=C/c3ccc(Cl)c(Cl)c3)CCC2=O)CCC1O (racemic) [Example 243] ... 6.88

[I] CC(C)N1CCN(CCCCN2CCN(C(=O)/C=C/c3ccc(Cl)c(Cl)c3)CCC2=O)CC1 [Example 436]
[II] O=C(/C=C/c1ccc(Cl)c(Cl)c1)N1CCC(=O)N(CCN2CCCCC2)CC1 [Example 3]
[III] O=C(/C=C/c1ccc(Cl)c(Cl)c1)N1CCC(=O)N(CCCCN2CCC(CO)CC2)CC1 [Example 422]
[IV] O=C(/C=C/c1ccc(F)c(Cl)c1)N1CCC(=O)N(CCCCN2CCCC(CO)C2)CC1 (racemic) [Example 385]
[V] O=C(/C=C/c1cnc(Cl)c(Cl)c1)N1CCC(=O)N(CCCN2CCC3(CC3)C(O)C2)CC1 (stereo not drawn) [Example 497]
Query block: Output the entries ranked by pIC50 from maximum down to minimum. // rank by listing labels in the order requested
Result block: V, III, IV, I, II
(V: 7.59, III: 7.15, IV: 6.51, I: 6.13, II: 5.90)

[1] O=C(/C=C/c1ccc(Cl)c(F)c1)N1CCC(=O)N(CCCN2CCCCC2)CC1 [Example 13]
[2] CC1(C)CN(CCCN2CCN(C(=O)/C=C/c3ccc(Cl)c(Cl)c3)CCC2=O)CCC1O (racemic) [Example 257]
[3] O=C1CC2(CCN(CCCN3CCN(C(=O)/C=C/c4ccc(Cl)c(Cl)c4)CCC3=O)CC2)C(=O)N1 [Example 87]
[4] CC(=O)NC1CCN(CCCCN2CCN(C(=O)/C=C/c3ccc(Cl)c(Cl)c3)CCC2=O)CC1 [Example 453]
Query block: Output the entries ranked by pIC50 from maximum down to minimum. // rank by listing labels in the order requested
Result block: 4, 2, 3, 1
(4: 7.48, 2: 6.74, 3: 6.50, 1: 6.14)

[1] O=C(/C=C/c1ccc(OCc2ccccc2)cc1)N1CCC(=O)N(CCN2CCCC2)CC1 [Example 17]
[2] CN(CCCN1CCN(C(=O)/C=C/c2ccc(Cl)c(Cl)c2)CCC1=O)C1CCCC1 [Example 37]
Query block: Please state the entry with greater pIC50 among 1 and 2 . Answer with the label corresponding to your selection.
Result block: 2

[A] O=C(/C=C/c1ccc(F)c(F)c1)N1CCC(=O)N(CC(O)CN2CCCCC2)CC1 (racemic) [Example 177]
[B] O=C(C=Cc1ccc(F)c(Cl)c1)N1CCC(=O)N(CCCN2CCC(O)C(F)C2)CC1 (mixture of isomers) [Example 214]
Query block: Smaller pIC50 value, A vs B ? Answer with the label corresponding to your selection.
Result block: A
(A: 6.02, B: 6.23)

[A] CC1CCCCN1CCN1CCN(C(=O)C=Cc2ccc(Cl)c(Cl)c2)CCC1=O (racemic) [Example 102]
[B] O=C(/C=C/c1ccc(F)c(Cl)c1)N1CCC(=O)N(CCCN2CCC[C@@H](O)C2)CC1 [Example 193]
Query block: Please state the entry with greater pIC50 among A and B . Answer with the label corresponding to your selection.
Result block: B
(B: 6.19, A: 5.99)

[A] O=C(/C=C/c1ccc(Cl)c(Cl)c1)N1CCC(=O)N(CCCN2CCC[C@@H](O)C2)CC1 [Example 91]
[B] COC(=O)NC1CCN(CCCN2CCN(C(=O)/C=C/c3ccc(Cl)c(Cl)c3)CCC2=O)CC1 [Example 244]
[C] CC(C)CN1CCN(CCCN2CCN(C(=O)/C=C/c3ccc(Cl)c(Cl)c3)CCC2=O)CC1 [Example 258]
[D] COCC1CCCN(CC(O)CN2CCN(C(=O)/C=C/c3ccc(Cl)c(Cl)c3)CCC2=O)C1 (racemic) [Example 293]
[E] O=C(/C=C/c1ccc(F)c(Cl)c1)N1CCC(=O)N(C[C@@H](O)CN2CCC3(CC3)C(O)C2)CC1 (stereo partly drawn) [Example 342]
Query block: Output the entries ranked by pIC50 from maximum down to minimum. // rank by listing labels in the order requested
Result block: E, A, C, B, D
(E: 8.52, A: 6.83, C: 6.43, B: 6.18, D: 5.95)

###

EXPERIMENTAL_SYSTEM: human chemokine receptor 2 isoform B (Homo sapiens, UniProt P41597)
ASSAY_EXPLANATION: Calcium mobilization assay (FLIPR, CHOK1-CCR2B-A5 cells, 20 nM MCP-1)
CONDITION_LABEL: Ca mobilisation assay, CCR2, antagonist activity vs 20 nM MCP-1
OUTCOME_MEASURE: IC50 (nM)

Worked examples follow.
1. CCN(CC)C1CCN(CCN2CCN(C(=O)/C=C/c3ccc(Cl)c(Cl)c3)CCC2=O)C1 (racemic) ... 864
2. COCCN1CCN(CCCCN2CCN(C(=O)/C=C/c3ccc(Cl)c(Cl)c3)CCC2=O)CC1 ... 263
3. O=C(/C=C/c1ccc(F)c(Cl)c1)N1CCC(=O)N(CCCCN2CCCCC2)CC1 ... 246
4. O=C(/C=C/c1ccc(Cl)c(Cl)c1)N1CCC(=O)N(CC[C@@H](O)CN2CCCCC2)CC1 ... 105
5. COCCN(C)CCCN1CCN(C(=O)/C=C/c2ccc(Cl)c(Cl)c2)CCC1=O ... 1180
6. O=C(/C=C/c1ccc(Cl)c(Cl)c1)N1CCC(=O)N(CCCN2CCC(F)CC2)CC1 ... 175

[A] O=C(/C=C/c1ccc(Cl)c(Cl)c1)N1CCC(=O)N(CCN2CCC[C@H]2CO)CC1
[B] COCC1CCC(O)CN1CCCCN1CCN(C(=O)/C=C/c2ccc(Cl)c(Cl)c2)CCC1=O (racemic)
[C] CC1CCN(CCCN2CCN(C(=O)C=Cc3ccc(Cl)c(F)c3)CCC2=O)CC1O (single isomer, unassigned) [Example 492]
[D] CC1(C)CCN(CC(O)CN2CCN(C(=O)/C=C/c3ccc(F)c(F)c3)CCC2=O)CC1O (racemic)
[E] COC1COCCC1NCCCN1CCN(C(=O)C=Cc2ccc(Cl)c(Cl)c2)CCC1=O (mixture of isomers)
Query block: Output the entries ranked by IC50 from maximum down to minimum. // rank by listing labels in the order requested
Result block: E, A, B, D, C

[a] O=C1NCC2(CCN(CCCN3CCN(C(=O)/C=C/c4ccc(F)c(Cl)c4)CCC3=O)CC2)O1
[b] CC1(CO)CCCCN1CC(O)CCN1CCN(C(=O)/C=C/c2ccc(Cl)c(Cl)c2)CCC1=O (racemic)
Query block: Please state the entry with greater IC50 among a and b . Answer with the label corresponding to your selection.
Result block: a
(a: 453 nM, b: 73 nM)

[P] O=C1CC2(CCN(CCCN3CCN(C(=O)/C=C/c4ccc(F)c(Cl)c4)CCC3=O)CC2)CN1
[Q] CC(=O)NC1CCCN(CCCCN2CCN(C(=O)/C=C/c3ccc(Cl)c(Cl)c3)CCC2=O)C1 (racemic)
Query block: Smaller IC50 value, P vs Q ? Answer with the label corresponding to your selection.
Result block: Q
(Q: 389 nM, P: 739 nM)
